Tested on: cultured nerve cells
PROTOCOL_DETAILS: Action of protecting cultured nerve cells from glutamic acid toxicity (LDH leakage)
Type: cell-based, Wistar rat
MEASUREMENT_SETUP: rat fetal cerebral cortex cells, 10 mM glutamic acid, 24 hours, read-out: ED50 (the source's name)
Criterion: EC50 strictly less than 100 nM. Met: 1 (yes). Not met: 0 (no).

ITEM_SMILES	GROUP_LABEL
Oc1ccc2c3c1O[C@H]1c4[nH]c5ccc6ccccc6c5c4C[C@@]4(O)[C@@H](C2)N(CC2CC2)CC[C@]314	0 (no)
Oc1ccc2c3c1O[C@H]1c4[nH]c5c(cc(Br)c6ccccc65)c4C[C@@]4(O)[C@@H](C2)N(CC2CC2)CC[C@]314	0 (no)
Cn1c2c(c3cc4c5c(cccc5c31)CC4)C[C@@]1(O)[C@H]3Cc4ccc(O)c5c4[C@@]1(CCN3CC1CC1)[C@H]2O5	1 (yes)
N#Cc1cc2c3c([nH]c2c2ccccc12)[C@@H]1Oc2c(O)ccc4c2[C@@]12CCN(CC1CC1)[C@H](C4)[C@]2(O)C3	0 (no)
Cc1ccc(Cn2c3c(c4ccc5ccccc5c42)C[C@@]2(O)[C@H]4Cc5ccc(O)c6c5[C@@]2(CCN4CC2CC2)[C@H]3O6)cc1	1 (yes)
COc1ccc2c3c1O[C@H]1c4[nH]c5c(ccc6ccccc65)c4C[C@@]4(O)[C@@H](C2)N(CC2CC2)CC[C@]314	0 (no)
